System: T-47D breast
Experiment: NCI tumour cell line growth inhibition, 48 h
Listed compounds paired with reported TGI
quantity-measured: TGI (µM)

INSERT INTO results (compound, comparison_sign, measured) VALUES
  ('CN1CCCCC1CCN1c2ccccc2Sc2ccc(S(C)=O)cc21 (stereo not given)', '>', 100),
  ('Oc1cc2ccccc2cc1-c1n[nH]c(=S)n1-c1ccc(Cl)cc1', '>', 100),
  ('COc1cc(NC(N)=NCCC(C)(C)c2ccc(C(F)(F)F)cc2)ncc1C#N', '=', 3.5),
  ('Cc1ccccc1/C=C1\CN(C(=O)OC(C)(C)C)C/C(=C\c2ccccc2C)C1=O', '>', 100),
  ('[N-]=[N+]=NC1=C(c2ccccc2)C(=O)c2cccc3cccc1c23', '=', 82.1),
  ('COc1ccc(CC2C3=C(CCCC3)CCN2C)cc1 (stereo not given)', '>', 100),
  ('O=c1cccc(C#CC#C/C=C/CO)o1', '=', 4.46),
  ('CC(C)(C)NC1C2CCC(C)(C1O)C2(C)C (stereo not given)', '>', 100),
  ('CCN(CC)CC(O)C1CCC(c2ccccc2)CC1 (stereo not given)', '>', 100),
  ('Cn1cnc([N+](=O)[O-])c1Sc1nc(N)nc2c1ncn2Cc1ccccc1', '=', 40.9);

###

System: DMS 114 small cell lung
Assay: NCI tumour cell line growth inhibition, 48 h
Listed compounds paired with reported TGI
quantity-measured: TGI

INSERT INTO measurements (compound, tested_system, measured) VALUES
  ('CC1CCC23COC(=O)C2C(O)CCC3C1(C)CC(O)c1ccoc1 (stereo unspecified)', 'DMS 114 small cell lung', '> 100 µM'),
  ('COc1ccc(/C(C)=N/NC(N)=S)c(OC)c1', 'DMS 114 small cell lung', '> 100 µM'),
  ('COc1ccc([C@@H]2CC(=O)NCCCCNCCCN2)cc1', 'DMS 114 small cell lung', '> 100 µM'),
  ('C/C(=N/N)c1ccc2[nH]c3c(C)cc([N+](=O)[O-])c(C)c3c2c1', 'DMS 114 small cell lung', '25.8 µM'),
  ('CC(O[Si](C)(C)C)C1C=CC(C)n2c(=O)n(-c3ccccc3)c(=O)n21 (stereo unspecified)', 'DMS 114 small cell lung', '> 100 µM'),
  ('CN(C)/C=N/c1nc2ncn(CCOC(=O)c3ccccc3)c2c(=O)[nH]1', 'DMS 114 small cell lung', '> 100 µM');

###

Test system: RXF 393 renal
Assay: NCI tumour cell line growth inhibition, 48 h
*1 amine or outer side, *2 acyl side, *3 side chain or, on linkers, in order; H or OH if unused. Where a SMILES comes first, the peptide text is derived from it. Bridges are numbered along the chain shown (N, C = ends). [ ]: non-standard residue; d: D form. The star is where a group is joined. Phe(3-Me) = Cc1cccc(C[C@H](N)C(=O)O)c1; NH(4-Cl-2-F-phenyl) = Fc1cc(Cl)ccc1N*; Pro(4R-Me) = C[C@H]1CN[C@H](C(=O)O)C1; Propanoyl(3-NMe2) = CN(C)CCC(=O)*; Hyp = O=C(O)[C@@H]1C[C@@H](O)CN1; aThr = C[C@H](O)[C@H](N)C(=O)O; Pip = O=C(O)[C@@H]1CCCCN1; CO = O=C([*:1])[*:2]
Listed compounds paired with reported TGI
quantity-measured: TGI

INSERT INTO assay_data (compound, measured) VALUES
  ('C[n+]1ccc(-c2c3nc(c(-c4ccc5c(ccc[n+]5C)c4)c4ccc([nH]4)c(-c4cc[n+](C)cc4)c4nc(c(-c5ccc6c(ccc[n+]6C)c5)c5ccc2[nH]5)C=C4)C=C3)cc1', '> 50 µM'),
  ('COC(=O)CCC(=O)c1ccc2c(c1)CC1(C2)Cc2ccc3c(c2C1)CCCC3=O (stereo unspecified)', '97.4 µM'),
  ('CC(C)CC(=O)NS(=O)(=O)c1ccccc1', '> 100 µM'),
  ('COc1ccc(/C=C/C(=O)c2ccc(Nc3ccnc4cc(Cl)ccc34)cc2)cc1', '> 100 µM'),
  ('N/N=C(\C(=O)Nc1ccc([N+](=O)[O-])cc1)C(C1=Nc2cc([N+](=O)[O-])ccc2NC1)[N+](=O)[O-] (stereo unspecified)', '> 100 µM'),
  ('O=C(c1ccc2c3c(ccc(C(=O)C(F)(F)F)c13)CC2)C(F)(F)F', '> 100 µM'),
  ('COc1cc2c3c(n(CCCCl)c(=O)c2cc1OC)-c1ccc(C#N)cc1C3=O', '18.1 µM'),
  ('[N-]=[N+]=NC1=C(c2ccccc2)C(=O)c2cccc3cccc1c23', '60.6 µM'),
  ('CCN(CC)C1=Nc2ccccc2-n2c(C)cnc2C1', '> 100 µM'),
  ('CCOC(=O)NC(=O)c1cn(CCSCCOC(=O)NCCCCCCNC(=O)OCCSCCn2cc(C(=O)NC(=O)OCC)c(=O)[nH]c2=O)c(=O)[nH]c1=O', '> 100 µM'),
  ('c1ccc(C2N3CCCCC3[C@@H]3c4[nH]c5ccccc5c4CCN23)cc1 (stereo partly specified)', '> 100 µM'),
  ('COc1ccc([C@@H]2CC(=O)NCCCCNCCCN2)cc1', '> 100 µM'),
  ('O=C(O)c1cc(Sc2ccc([N+](=O)[O-])c(C(=O)O)c2)ccc1[N+](=O)[O-]', '> 100 µM'),
  ('CC1Cc2cc(O)ccc2C2[C@@H]1C1CC[C@H](O)[C@@]1(C)C[C@@H]2O[N+](=O)[O-] (stereo partly specified)', '29.3 µM'),
  ('Cc1cc(NCCCCCCNc2cc(C)nc3ccc(Cl)cc23)c2cc(Cl)ccc2n1', '30.6 µM'),
  ('CC[C@]12CCCN3CC[C@]4(C(=C(C(=O)OC)C1)Nc1ccccc14)[C@@H]32', '30.4 µM'),
  ('CC(=O)c1ccc(NCN2C(=O)c3ccccc3C2=O)cc1', '> 100 µM'),
  ('CP(C)(=S)P(C)(C)=S', '> 100 µM'),
  ('CN1OC2OC(=O)OC2[C@H]1[C@H]1O[C@H](c2ccccc2)OC1(C)c1cc(OC(=O)c2ccccc2)ccc1OC(=O)c1ccccc1 (stereo partly specified)', '> 50 µM'),
  ('O=c1cccc(C#CC#C/C=C/CO)o1', '7.03 µM'),
  ('CCN1CCN(C(=O)[C@]23CCC(C)(C)C[C@@H]2C2=CC[C@@H]4[C@@]5(C)C/C(=C/c6cccnc6)C(=O)C(C)(C)[C@@H]5CC[C@@]4(C)[C@]2(C)CC3)CC1', '2.77 µM'),
  ('CN(C)/C=N/S(=O)(=O)c1nn2c(C=O)c(-c3ccc(-c4ccc([N+](=O)[O-])cc4)o3)nc2s1', '5.04 µM'),
  ('Cc1cccc(NC(=S)N/N=C(/c2ccccc2)c2ccccn2)c1', '13.2 µM'),
  ('CN(C)/C=N/c1nc2ncn(CCOC(=O)c3ccccc3)c2c(=O)[nH]1', '> 100 µM'),
  ('COc1ccc(Cn2c(Br)c3c(c2-c2cc(OC)c(OC)c(OC)c2)CCc2sc(NC(C)=O)nc2-3)cc1', '10.7 µM'),
  ('Cn1cnc([N+](=O)[O-])c1Sc1nc(N)nc2c1ncn2Cc1ccccc1', '43.7 µM'),
  ('Cc1cccc(C[C@H](NC(=O)Nc2ccc(Cl)cc2F)C(=O)N[C@@H]2C(=O)N3C[C@H](OC(=O)CCN(C)C)C[C@H]3C(=O)N3CCCC[C@H]3C(=O)N[C@@H](C)C(=O)N3C[C@H](C)C[C@H]3C(=O)O[C@H]2C)c1 ({NH(4-Cl-2-F-phenyl)-CO}-[Phe(3-Me)][aThr][Hyp](Propanoyl(3-NMe2))[Pip]A[Pro(4R-Me)]; ester 2-C)', '2.85 µM'),
  ('CC(C)(C)NC1C2CCC(C)(C1O)C2(C)C (stereo unspecified)', '> 100 µM'),
  ('CCc1ccc(Nc2cc(C)nc3nc(C)nn23)cc1', '> 100 µM'),
  ('COC1(C)C=NCC(C)(C)NC(=O)C(C)(OC)C=NCC(C)(C)NC1=O (stereo unspecified)', '> 10 µM'),
  ('Cc1nn(C)c2c1C(=O)N(C)CC(=O)N2C', '> 100 µM'),
  ('O=c1/c(=C/c2ccc3c(c2)OCO3)sc2nnc(-c3ccco3)n12', '> 100 µM'),
  ('C[C@@]1(N2C(=O)OC[C@@H]2c2ccccc2)C(=O)N([C@H](CC(=O)N2CCC(N3CCCCC3)CC2)C(=O)NCc2cccc(C(F)(F)F)c2)[C@@H]1/C=C/c1ccccc1', '4.51 µM'),
  ('c1ccc2c(c1)C(=Nc1ccc(N=C3c4ccccc4-c4ccccc43)cc1)c1ccccc1-2', '> 100 µM'),
  ('CN1CCN(c2ccc(-n3cc(C(=O)O)c(=O)c4cc(F)c(N5CCN(C)CC5)cc43)nc2)CC1', '> 100 µM'),
  ('N=c1ccn2c(n1)O[C@@H]1[C@@H](O)[C@H](CO)O[C@@H]12', '> 100 µM');

Cited source: PubChem BioAssay (NCI)
